Entry source: patent US10323000B2

molecular target: P2X7 (IL-1β release from THP-1 cells) (Homo sapiens (Human), UniProt Q99572); experiment: IL-1β release assay; format: cell-based
Sequence (Q99572 whole entry): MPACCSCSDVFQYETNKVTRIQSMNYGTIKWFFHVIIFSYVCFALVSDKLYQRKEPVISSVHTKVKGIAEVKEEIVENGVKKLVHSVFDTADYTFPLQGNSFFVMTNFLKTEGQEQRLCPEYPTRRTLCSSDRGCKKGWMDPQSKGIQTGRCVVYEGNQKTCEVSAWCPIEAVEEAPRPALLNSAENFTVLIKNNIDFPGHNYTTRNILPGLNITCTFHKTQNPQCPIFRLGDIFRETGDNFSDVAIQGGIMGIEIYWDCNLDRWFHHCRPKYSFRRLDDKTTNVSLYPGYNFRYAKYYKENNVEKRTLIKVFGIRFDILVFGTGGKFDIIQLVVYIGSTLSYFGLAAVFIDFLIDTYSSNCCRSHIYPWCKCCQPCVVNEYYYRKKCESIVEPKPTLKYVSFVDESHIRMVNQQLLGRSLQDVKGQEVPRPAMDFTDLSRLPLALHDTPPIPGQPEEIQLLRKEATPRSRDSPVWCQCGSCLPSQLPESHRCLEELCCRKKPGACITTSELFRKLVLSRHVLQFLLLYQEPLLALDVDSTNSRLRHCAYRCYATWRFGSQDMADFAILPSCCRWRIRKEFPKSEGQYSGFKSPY
pIC50: −log10 of the molar value.
For each record, write down the corresponding pIC50.

Reference set (3 entries):
| compound | readoutName | result |
| --- | --- | --- |
| CN1CCC[C@H]1Cn1cc(C(=O)NCC2(O)CCC(F)(F)CC2)c2c(Cl)cccc21 | pIC50 | 7.00 to 8.00 |
| COCCn1cc(C(=O)NCCc2ccc(F)cc2Cl)c2c(Cl)cccc21 | pIC50 | 6.30 to 7.00 |
| O=C(NCC1CCCC2(CC2)C1)c1cn(C2COC2)c2cccc(Cl)c12 (stereo not shown) | pIC50 | 7.00 to 8.00 |

Hi there! I need pIC50 for each item below, if you can.
1. O=C(NCC(c1ccccc1)C1CCCC1)c1cn(C2COC2)c2cccc(Cl)c12 (stereo not shown)
2. CN1CC(n2cc(C(=O)NCC3CCC(F)(F)CC3)c3c(Cl)cccc32)C1
3. O=C(NCC1CCC(F)(F)CC1)c1cn(C[C@@H]2CCCO2)c2cccc(Cl)c12
4. O=C(NCC1(O)CCCC(F)(F)C1)c1cn(CCN2CCCC2=O)c2cccc(Cl)c12 (stereo not shown)
5. O=C(NCC1CCCC(C(F)(F)F)C1)c1cn(C2CCOC2)c2cccc(Cl)c12 (stereo not shown)

["6.30 to 7.00", "6.30 to 7.00", "7.00 to 8.00", "7.00 to 8.00", "6.30 to 7.00"]

Give me pIC50 for each of these compounds, listed below.
1. CC(C)N(C)C(=O)Cn1cc(C(=O)NCC2CCC(F)(F)CC2)c2c(Cl)cccc21
2. O=C(NC[C@]1(O)CCCC(F)(F)C1)c1cn(C2COC2)c2cccc(Cl)c12
3. O=C(NCC1CCC(F)(F)CC1)c1cn(CC(=O)N2CCC2)c2cccc(Cl)c12
4. CC(NC(=O)c1cn(C2COC2)c2cccc(Cl)c12)[C@]12C[C@H]3C[C@H](C[C@H](C3)C1)C2 (stereo partly shown)

6.30 to 7.00
7.00 to 8.00
7.00 to 8.00
7.00 to 8.00

Dear colleague, could you send me pIC50 for each of the items below? Thanks.
1. O=C(NCC1(O)CCC(F)(F)CC1)c1cn(CCC(F)(F)F)c2cccc(Cl)c12
2. CN(C)C(=O)Cn1cc(C(=O)NCC2CCC(F)(F)CC2)c2c(Cl)cccc21
3. C[C@@H]1CCC[C@](O)(CNC(=O)c2cn(CC(F)(F)F)c3cccc(Cl)c23)C1
4. O=C1CC[C@H](Cn2cc(C(=O)NCC3CCC(F)(F)CC3)c3c(Cl)cccc32)N1

6.00 to 6.30
7.00 to 8.00
6.30 to 7.00
7.00 to 8.00
